biological target: Carbamoyl-phosphate synthase small chain (Escherichia coli (strain K12)); assay: Enzyme Assay; settings: pH 7.5
Sequence (P0A6F1 whole entry): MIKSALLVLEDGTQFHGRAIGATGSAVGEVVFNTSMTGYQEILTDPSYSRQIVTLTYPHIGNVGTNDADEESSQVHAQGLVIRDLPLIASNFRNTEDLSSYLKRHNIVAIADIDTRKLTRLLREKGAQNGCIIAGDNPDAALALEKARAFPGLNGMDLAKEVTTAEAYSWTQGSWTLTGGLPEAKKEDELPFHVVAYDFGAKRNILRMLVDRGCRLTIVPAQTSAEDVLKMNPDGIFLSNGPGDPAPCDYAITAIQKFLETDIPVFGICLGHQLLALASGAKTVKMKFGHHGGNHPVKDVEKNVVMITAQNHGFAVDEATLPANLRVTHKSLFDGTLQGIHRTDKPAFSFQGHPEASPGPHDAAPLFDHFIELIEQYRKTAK
parameterMeasured: log10(Ki) (log10 of the value in µM)
Scale: log10; quantity: Ki; unit before log: µM

Please review the entries below; each comes with its answer.
| compound | log10(Ki) |
| --- | --- |
| NC(CCC(=O)O)C(=O)O (stereo not given) | 4.45 |
| COC(=O)CCC(N)C(=O)O (stereo not given) | 4.40 |
| NC(CCC(=O)NO)C(=O)O (stereo not given) | 0.95 |
| NC(=O)CCC(N)C(=O)O (stereo not given) | 1.73 |

Consider now this further compound.
Form field: log10(Ki) recorded for NNC(=O)CCC(N)C(=O)O (stereo not given) with Carbamoyl-phosphate synthase small chain (Escherichia coli (strain K12)) (enter value)
2.53
